system: cerebellar granule cells (CGC); details: Wistar, rat, 6 days, 100 μM
Where a SMILES comes first, the peptide text is derived from it. [ ]: non-standard residue; d: D form. Hyp = O=C(O)[C@@H]1C[C@@H](O)CN1
Can you tell me Viability (%) for the items I'm about to list?
Give bare numbers, in %.

Each compound below has a recorded value; state its Viability (%).
1. C[C@H](N)C(=O)N1C[C@H](O)C[C@H]1C(=O)O [AO] (H-Ala-[Hyp]-OH; N-terminus and C-terminus assumed)
2. O=C(O)[C@@H]1C[C@@H](O)CN1C(=O)[C@@H]1CCCN1 [PO, Pro-Hyp] (H-Pro-[Hyp]-OH; N-terminus and C-terminus assumed)
3. N[C@@H](CCC(=O)O)C(=O)N1C[C@H](O)C[C@H]1C(=O)O [EO] (H-Glu-[Hyp]-OH; N-terminus and C-terminus assumed)
4. O=C1NCC(=O)N2C[C@H](O)C[C@@H]12
5. O=C1N[C@@H](Cc2cnc[nH]2)C(=O)N2CCC[C@@H]12

1. 64.7
2. 72.9
3. 81.2
4. 50.1
5. 63.9

// for each compound in input: emit Viability (%)
1. O=C1NCC(=O)N2CCC[C@@H]12
2. O=C1[C@@H]2C[C@@H](O)CN2C(=O)[C@@H]2CCCN12
3. O=C(O)CC[C@@H]1NC(=O)[C@@H]2C[C@@H](O)CN2C1=O
4. N[C@@H](CCC(=O)O)C(=O)N1C[C@H](O)C[C@H]1C(=O)NCC(=O)O [EOG, Glu-Hyp-Gly] (H-Glu-[Hyp]-Gly-OH; N-terminus and C-terminus assumed)

46.4
70.6
65.0
74.4

====

test system: cerebellar granule cells (CGC); assay: Evaluation Test 2: viability of primary-cultured CGC by MTT assay (differentiation promoting action); details: 1 μM added days 1 and 4; KCl 15 mM; MTT day 7; percent of control sample with KCl 25 mM
Where a SMILES comes first, the peptide text is derived from it. [ ]: non-standard residue; d: D form. Hyp = O=C(O)[C@@H]1C[C@@H](O)CN1
Please respond with reported Viability (%) for every item in the list.
Give bare numbers, in %.

Look over these answered cases.
O=C(O)CNC(=O)[C@@H]1C[C@@H](O)CN1 [OG] (H-[Hyp]-Gly-OH) : 61.8
NCC(=O)N1CCC[C@H]1C(=O)O [GP] (H-Gly-Pro-OH; N-terminus and C-terminus assumed) : 61.2
NCC(=O)N1CCC[C@H]1C(=O)N1C[C@H](O)C[C@H]1C(=O)O [GPO] (H-Gly-Pro-[Hyp]-OH) : 58.4

Here is the next item to consider.
What value of Viability (%) has been recorded for this entry: N[C@@H](CCC(=O)N[C@@H](CS)C(=O)NCC(=O)O)C(=O)O
63.5

====

tested on: cerebellar granule cells (CGC); conditions: Wistar, rat, 6 days, 10 μM
Where a SMILES comes first, the peptide text is derived from it. [ ]: non-standard residue; d: D form. Hyp = O=C(O)[C@@H]1C[C@@H](O)CN1
measurement type: Viability (%)
# output: number + unit

Count: 8. Required value per item: Viability (%).
1. O=C1NCC(=O)N2CCC[C@@H]12
2. O=C1NCC(=O)N2C[C@H](O)C[C@@H]12
3. N[C@@H](CCC(=O)O)C(=O)N1C[C@H](O)C[C@H]1C(=O)O [EO] (H-Glu-[Hyp]-OH; N-terminus and C-terminus assumed)
4. C[C@H](N)C(=O)N1C[C@H](O)C[C@H]1C(=O)O [AO] (H-Ala-[Hyp]-OH; N-terminus and C-terminus assumed)
5. O=C1[C@@H]2C[C@@H](O)CN2C(=O)[C@@H]2CCCN12
6. O=C(O)CC[C@@H]1NC(=O)[C@@H]2C[C@@H](O)CN2C1=O
7. O=C1N[C@@H](Cc2cnc[nH]2)C(=O)N2CCC[C@@H]12
8. O=C(O)[C@@H]1C[C@@H](O)CN1C(=O)[C@@H]1CCCN1 [PO, Pro-Hyp] (H-Pro-[Hyp]-OH; N-terminus and C-terminus assumed)

["51.2%", "54.2%", "86.8%", "66.1%", "73.2%", "64.8%", "65.1%", "76.3%"]
